- Measurement Target: bovine serum albumin (BSA) (Bos taurus)
- Construct: BSA, molecular weight of 66 kDa, 583 residues; purchased Sigma Aldrich Chemicals (Taufkirchen, Germany)
- Run Description: High hydrostatic pressure fluorescence titration of ANS with BSA (1-2000 bar)
- Type: binding
- Protocol Conditions: Binding constant Kb1, 250 mM MgCl2, 25 °C, 500 bar
Parameter Measured: Kd (nM)
Report as a plain number; the unit nM is understood.

Param readout= Kd; system= bovine serum albumin (BSA) (Bos taurus); entry= O=S(=O)(O)c1cccc2cccc(Nc3ccccc3)c12 [ANS, 8-anilinonaphthalene-1-sulfonic acid] ; returns value.
233

----------
- Measurement Target: bovine serum albumin (BSA) (Bos taurus, UniProt P02769)
- Construct: BSA, molecular weight of 66 kDa, 583 residues; purchased Sigma Aldrich Chemicals (Taufkirchen, Germany)
- Sequence (P02769 25-607): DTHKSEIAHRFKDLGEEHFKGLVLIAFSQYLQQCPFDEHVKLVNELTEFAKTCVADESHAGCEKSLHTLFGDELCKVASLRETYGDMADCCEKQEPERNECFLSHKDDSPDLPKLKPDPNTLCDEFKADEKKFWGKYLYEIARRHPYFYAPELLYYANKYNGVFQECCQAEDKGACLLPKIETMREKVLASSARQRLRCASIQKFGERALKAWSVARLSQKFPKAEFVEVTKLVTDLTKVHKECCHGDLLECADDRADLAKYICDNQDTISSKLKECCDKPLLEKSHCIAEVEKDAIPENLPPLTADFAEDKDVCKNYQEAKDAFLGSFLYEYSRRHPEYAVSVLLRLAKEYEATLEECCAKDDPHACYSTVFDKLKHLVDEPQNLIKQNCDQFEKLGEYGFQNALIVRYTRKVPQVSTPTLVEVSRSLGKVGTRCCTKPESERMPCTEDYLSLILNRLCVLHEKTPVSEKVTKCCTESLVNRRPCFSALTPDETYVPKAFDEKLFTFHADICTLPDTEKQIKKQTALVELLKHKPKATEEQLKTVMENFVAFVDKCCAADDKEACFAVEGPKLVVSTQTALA
- Run Description: High hydrostatic pressure fluorescence titration of ANS with BSA (1-2000 bar)
- Format: binding
- Protocol Conditions: Binding constant Kb1, 250 mM Mg(ClO4)2, 25 °C, 500 bar
Parameter Measured: Kd (nM)
Write the number in nM without appending the unit.

Can you look up Kd on bovine serum albumin (BSA) (Bos taurus, UniProt P02769) for O=S(=O)(O)c1cccc2cccc(Nc3ccccc3)c12 ?
1690
